assay: melting temperature; fluorescence melt of hairpins on a sequencing array, two-state fit, raised by 9.35 °C to match UV melts; settings: sodium 0.088 M
Tm under 50 °C gets True, anything at or over 50 °C gets False.

Primary Sequence: GATCTCATCGGAGATC ((((((....))))))
Qualitative Label: False
//
Primary Sequence: GCCAACCGAAAGGTGGGC (((.(((....))).)))
Qualitative Label: False
//
Primary Sequence: GCATATCGAAAGATCTGC (((.(((....))).)))
Qualitative Label: True
//
Primary Sequence: GGCCGTGGAAACGTGGCC ((((..(....)..))))
Qualitative Label: False
//
Primary Sequence: GTTATGGGAAACCGTAAC ((((.((....)).))))
Qualitative Label: True
//
Primary Sequence: GTTGTCCGAAAGGATAAC (((.(((....))).)))
Qualitative Label: False

Find out if reported Tm for GTCATCACGAAAGTGGAC (((..(((....)))))) is less than 50 °C True

Find out if reported Tm for GATGTTGGAAACAGTATC (((..((....))..))) is less than 50 °C True

Find out if reported Tm for GTACACGAAAGTGGATAC ((((((....)))..))) is less than 50 °C True

Find out if reported Tm for GATCGCAAATGCGATC ((((((....)))))) is less than 50 °C False

Find out if reported Tm for GACTGCGAAAGCATTGTC ((((((....)))..))) is less than 50 °C True

Find out if reported Tm for GGACCCGGAAACGAGCCC ((.(.((....)).).)) is less than 50 °C True

Find out if reported Tm for GTATCCCCGAAAGGGTAC (((..(((....)))))) is less than 50 °C True

====

experiment: melting temperature; fluorescence melt of hairpins on a sequencing array, two-state fit, raised by 9.35 °C to match UV melts; conditions: sodium 0.088 M
Parameter: Tm (°C)
Give bare numbers, in °C.

Worked set:
Primary Sequence: GGCCCACGAAAGTGCGCC (((.(((....))).)))
Tm, °C: 55.8
//
Primary Sequence: GGGTTCCGAAAGGACCCC (((.(((....))).)))
Tm, °C: 58.1
//
Primary Sequence: GTTGCTCGAAAGAGAAAC (((.(((....))).)))
Tm, °C: 48
//
Primary Sequence: GGCACGGGAAACCGTGTC (.(((((....))))).)
Tm, °C: 59.2

Items follow; give Tm for each.
1. GCAATGGGAAACCACTGC (((.(((....))).)))
2. GTAGACGAAAGTCGTAC ((((((....))).)))
3. GGTGCCGAAAGGCGACC ((((((....))).)))

[39.1, 49.9, 61]

Items follow; give Tm for each.
1. GATCGACACGTCGATC ((((((....))))))
2. GATCCTGCTAAGGATC ((((((....))))))
3. CGGCTGCGGAAACGCCCG (((..(((....))))))

[59.7, 63.2, 44.2]

Items follow; give Tm for each.
1. GGTGGAGCGAAAGCTACC (((..(((....))))))
2. GCTACGCGAAAGCTGAGC (((..((....))..)))

1. 44.1
2. 46.2
